# METHOD NOTES: Parallel Artificial Membrane Permeation Assay (PAMPA), Pre-coated PAMPA Plate System (Corning)
Counter-ions that a name gives are not always drawn.
This listing pairs compounds with measured Papp at 5 h, 200 μmol/L.
RESULT TYPE: Papp at 5 h, 200 μmol/L (×10⁻⁶ cm/s)

1. CC[C@H](C)[C@@H]([C@@H](CC(=O)N1CCC[C@H]1[C@H](OC)[C@@H](C)C(=O)N[C@@H](Cc1ccccc1)c1nc(C(=O)NCCc2ccc(N)cc2)cs1)OC)N(C)C(=O)[C@@H](NC(=O)[C@H](C(C)C)N(C)C)C(C)C
0.3
2. CC[C@H](C)[C@@H]([C@@H](CC(=O)N1CCC[C@H]1[C@H](OC)[C@@H](C)C(=O)N[C@@H](Cc1ccccc1)c1nc(C(=O)NCCS)cs1)OC)N(C)C(=O)[C@@H](NC(=O)[C@H](C(C)C)N(C)C)C(C)C
1.15
3. CC[C@H](C)[C@@H]([C@@H](CC(=O)N1CCC[C@H]1[C@H](OC)[C@@H](C)C(=O)N[C@@H](Cc1ccccc1)c1nc(C(=O)NCCN)cs1)OC)N(C)C(=O)[C@@H](NC(=O)[C@H](C(C)C)N(C)C)C(C)C [Reference Example 12, dihydrochloride, reference compound]
0.01
4. CC[C@H](C)[C@@H]([C@@H](CC(=O)N1CCC[C@H]1[C@H](OC)[C@@H](C)C(=O)N[C@@H](Cc1ccccc1)c1nc(C(=O)NCCc2ccc(O)cc2)cs1)OC)N(C)C(=O)[C@@H](NC(=O)[C@H](C(C)C)N(C)C)C(C)C
0.36
